biological target: T1, similar peptide SP-05-0009, source protein not stated peptide on HLA-A*02:01 (human); assay: killing
T1 peptide: KIIDLLPKV
PROPERTY NAME: binding result

Requested field: binding result. Item: TCR-9 (TCR, V domains shown) Valpha: EDVEQSLFLSVREGDSSVINCTYTDSSSTYLYWYKQEPGAGLQLLTYIFSNMDMKQDQRLTVLLNKKDKHLSLRIADTQTGDSAIYFCAEKETAGNKLTFGGGTRVLVKP Vbeta: EPEVTQTPSHQVTQMGQEVILRCVPISNHLYFYWYRQILGQKVEFLVSFYNNEISEKSEIFDDQFSVERPDGSNFTLKIRSTKLEDSAMYFCASTVQSPRTNEQFFGPGTRLTVL no recognition

Requested field: binding result. Item: TCR-5 (TCR, V domains shown) Valpha: QQLNQSPQSMFIQEGEDVSMNCTSSSIFNTWLWYKQDPGEGPVLLIALYKAGELTSNGRLTAQFGITRKDSFLNISASIPSDVGIYFCAGGYNYGQNFVFGPGTRLSVLP Vbeta: GVTQTPKHLITATGQRVTLRCSPRSGDLSVYWYQQSLDQGLQFLIQYYNGEERAKGNILERFSAQQFPDLHSELNLSSLELGDSALYFCASSAGLAGGYEQYFGPGTRLTVT no recognition

meta.source: patent US20230057987A1
